Entry source: patent US12624019B2

- Protocol details: Pharmacokinetic study in mice
- Assay type: in vivo, SD mice
- Test settings: intravenous injection 1 mg/kg
For each entry below, report its Vss_pred value.
Write down the numeric answer in L/kg and omit the unit.

Vss_pred for CC(C)(O)c1cc2nn(C3CCN(CCCC4CCN(c5ccc6c(c5)C(=O)N(C5CCC(=O)NC5=O)C6=O)CC4)CC3)cc2cc1NC(=O)c1cccc(C(F)(F)F)n1 (stereo not shown) is 4.6

Vss_pred for COc1cc2nn(C3CCN(CC4CCN(CCOc5ccc6c(c5)C(=O)N(C5CCC(=O)NC5=O)C6=O)CC4)CC3)cc2cc1NC(=O)c1cccc(C(F)(F)F)n1 (stereo not shown) [Control group 2, reference compound] is 109.4

Vss_pred for COc1cc2nn(C3CCN(CC4CCN(c5ccc6c(c5)C(=O)N(C5CCC(=O)NC5=O)C6=O)CC4)CC3)cc2cc1NC(=O)c1cccc(C(F)(F)F)n1 (stereo not shown) is 3.3

Vss_pred for CC(C)(O)c1cc2nn(C3CCN(CC4CCN(c5ccc6c(c5)C(=O)N(C5CCC(=O)NC5=O)C6=O)CC4)CC3)cc2cc1NC(=O)c1cccc(C(F)(F)F)n1 (stereo not shown) is 2.2
